As shown below, each of these compounds has a reported log10 of TGI value.
# Tested on: OVCAR-4 ovarian
# METHOD: NCI tumour cell line growth inhibition, 48 h
REPORTED ENDPOINT: log10 of TGI (log10 of the value in µM)

>  <COMPOUND>
O=C(CN(/C=C/C(=O)C(F)(F)F)c1ccc(Cl)cc1)c1ccc(Cl)cc1

>  <log10 of TGI>
1.51

$$$$
>  <COMPOUND>
C=C(Cl)C(Cl)(CBr)CCC(Br)C(C)(C)Br (stereo not given)

>  <log10 of TGI>
1.56

$$$$
>  <COMPOUND>
CCC[C@H]1O[C@@H]2CC(=O)O[C@@H]2C2=C1C(=O)C=CC2=O

>  <log10 of TGI>
1.48

$$$$
>  <COMPOUND>
Oc1c(Cl)cc(Cl)c(Cl)c1CNCCNCc1c(O)c(Cl)cc(Cl)c1Cl

>  <log10 of TGI>
0.90

$$$$
>  <COMPOUND>
Clc1c(Cl)[n+](Cc2ccc3ccccc3c2)cn1Cc1ccc2ccccc2c1

>  <log10 of TGI>
0.48

$$$$
>  <COMPOUND>
COc1cc(/C=C/c2cc(/C=C/c3ccc(O)c(OC)c3)n(C(=O)c3ccc(Cl)cc3)n2)ccc1O

>  <log10 of TGI>
1.54

$$$$
>  <COMPOUND>
C=C(CCCCC)CN1CCCC1C(C)=O (stereo not given)

>  <log10 of TGI>
2.00

$$$$

====

Collected TGI values appear next to each entry.
# System: BT-549 breast
# METHOD: NCI tumour cell line growth inhibition, 48 h

>  <COMPOUND>
COC(=O)[C@@H]1c2cc3c(c(O)c2[C@@H](OC2OC(C)C(OC)C(C)(OC)C2OC)C[C@]1(C)O)C(=O)c1c(O)cc2c(c1C3=O)O[C@H]1O[C@]2(C)[C@H](O)[C@@H](N(C)C)[C@@H]1O (some centres undefined)

>  <TGI>
0.0588 µM

$$$$
>  <COMPOUND>
Cc1cc(S(=O)(=O)Nc2n[nH]c(-c3ccc(Cl)cc3)n2)c(SSc2cc(Cl)c(C)cc2S(=O)(=O)Nc2n[nH]c(-c3ccc(Cl)cc3)n2)cc1Cl

>  <TGI>
> 100 µM

$$$$
>  <COMPOUND>
O=C(O)CSc1n[nH]c(=O)[nH]c1=O

>  <TGI>
> 100 µM

$$$$
>  <COMPOUND>
Cc1ccc2c(=O)cc(-c3sccc3C)[nH]c2n1

>  <TGI>
> 100 µM

$$$$

====

Reported values of TGI for individual entries
# System: RPMI-8226 leukemia
# METHOD: NCI tumour cell line growth inhibition, 48 h

>  <COMPOUND>
CC(=O)O[C@@H]1C[C@]2(C(=O)c3ccccc3)C(=O)C(=O)S[C@]12c1ccccc1

>  <COMPARATIVE SIGN>
=

>  <TGI [µM]>
99.4

$$$$
>  <COMPOUND>
O=C1C2C(C(=O)N1c1ccccc1)C1(c3ccccc3)CCC2(C(=O)c2ccccc2)O1 (stereo not given)

>  <COMPARATIVE SIGN>
>

>  <TGI [µM]>
10

$$$$
>  <COMPOUND>
CC(C)[N+]([O-])(CCCNc1c2ccccc2nc2cccc([N+](=O)[O-])c12)C(C)C

>  <COMPARATIVE SIGN>
=

>  <TGI [µM]>
0.0875

$$$$
>  <COMPOUND>
CC(C)C[C@H](NC(=O)CNC(=O)c1cc(Cl)ccc1Cl)B(O)O

>  <COMPARATIVE SIGN>
=

>  <TGI [µM]>
0.0162

$$$$
>  <COMPOUND>
CC(C)(C)[Si](OC1CCOC1=O)(c1ccccc1)c1ccccc1 (stereo not given)

>  <COMPARATIVE SIGN>
>

>  <TGI [µM]>
100

$$$$
